MEASUREMENT_DESCRIPTION: Equilibrium solubility test (HPLC)
COND: buffer solution, pH 10, aqueous buffer, thermodynamic from solid

GIVEN_SMILES | solubility thermodynamic at 24 h
CCOc1ccc(Cc2cc([C@@H]3O[C@H](CO)[C@@H](O)[C@H](O)[C@H]3O)ccc2Cl)cc1 | 340 µg/mL

###

MEASUREMENT_DESCRIPTION: Equilibrium solubility test (HPLC)
COND: buffer solution, pH 9, aqueous buffer, thermodynamic from solid
Protocol: The column used was an Agilent C18 column (5.0 μm, 4.6 × 150 mm). The mobile phase and diluted solution of the content and dissolution studies analyses were prepared with 0.5% triethylamine buffer (v/v, pH 6.8 adjusted with 85% phosphoric acid) and acetonitrile at a ratio of 7:3 (v/v). […] In the case of the content and dissolution studies, the mobile phase was constantly flowed for 18 min via an isocratic elution method and analyzed. […]

COMPOUND | solubility thermodynamic at 24 h, µg/mL
CCOc1ccc(Cc2cc([C@@H]3O[C@H](CO)[C@@H](O)[C@H](O)[C@H]3O)ccc2Cl)cc1 [Dapagliflozin] | 340

###

MEASUREMENT_DESCRIPTION: Apparent solubility test (USP <1236>)
COND: buffer solution, 20 °C, pH 10, aqueous buffer, thermodynamic from solid

GIVEN_SMILES | solubility
CCOc1ccc(Cc2cc([C@@H]3O[C@H](CO)[C@@H](O)[C@H](O)[C@H]3O)ccc2Cl)cc1 | 100 to 1000 µg/mL

###

MEASUREMENT_DESCRIPTION: Equilibrium solubility test (HPLC)
COND: pH 2.0 buffer solution, pH 2, aqueous buffer, thermodynamic from solid

GIVEN_SMILES | solubility thermodynamic at 12 h / µg/mL
CCOc1ccc(Cc2cc([C@@H]3O[C@H](CO)[C@@H](O)[C@H](O)[C@H]3O)ccc2Cl)cc1 | 350

###

MEASUREMENT_DESCRIPTION: Equilibrium solubility test (HPLC)
COND: pH 7, aqueous buffer, thermodynamic from solid

GIVEN_SMILES | solubility thermodynamic at 12 h, µg/mL
N[C@@H](CC(=O)N1CCn2c(nnc2C(F)(F)F)C1)Cc1cc(F)c(F)cc1F.O.O=P(O)(O)O | 2760

###

MEASUREMENT_DESCRIPTION: Equilibrium solubility test (HPLC)
COND: pH 10, aqueous buffer, thermodynamic from solid
ASSAY_ENDPOINT: solubility thermodynamic at 12 h

GIVEN_SMILES | ASSAY_ENDPOINT | READOUT_VALUE
N[C@@H](CC(=O)N1CCn2c(nnc2C(F)(F)F)C1)Cc1cc(F)c(F)cc1F.O.O=P(O)(O)O | solubility thermodynamic at 12 h | 960 µg/mL

###

MEASUREMENT_DESCRIPTION: Apparent solubility test (USP <1236>)
COND: 20 °C, pH 6.8, aqueous buffer, thermodynamic from solid
Protocol: Then, 200 μL of each solvent was added and stirred at 400 rpm. The temperature of the sample was maintained at 20 ± 2 °C. After shaking for 30 s every 5 min, 200 μL of each solvent was added until no particles of the API were visible. The apparent solubility of the two main components was estimated through the point at which all of the API dissolved and became clear.

GIVEN_SMILES | solubility
N[C@@H](CC(=O)N1CCn2c(nnc2C(F)(F)F)C1)Cc1cc(F)c(F)cc1F.O.O=P(O)(O)O | 1000 to 10000 µg/mL

###

MEASUREMENT_DESCRIPTION: Equilibrium solubility test (HPLC)
COND: pH 4, aqueous buffer, thermodynamic from solid
ASSAY_ENDPOINT: solubility thermodynamic at 12 h (µg/mL)

GIVEN_SMILES | SCALE_UNIT | READOUT_VALUE
N[C@@H](CC(=O)N1CCn2c(nnc2C(F)(F)F)C1)Cc1cc(F)c(F)cc1F.O.O=P(O)(O)O | µg/mL | 1610

###

MEASUREMENT_DESCRIPTION: Apparent solubility test (USP <1236>)
COND: 20 °C, pH 12, aqueous buffer, thermodynamic from solid
Description: Then, 200 μL of each solvent was added and stirred at 400 rpm. The temperature of the sample was maintained at 20 ± 2 °C. After shaking for 30 s every 5 min, 200 μL of each solvent was added until no particles of the API were visible. The apparent solubility of the two main components was estimated through the point at which all of the API dissolved and became clear.

GIVEN_SMILES | solubility
N[C@@H](CC(=O)N1CCn2c(nnc2C(F)(F)F)C1)Cc1cc(F)c(F)cc1F.O.O=P(O)(O)O | 1000 to 10000 µg/mL

###

MEASUREMENT_DESCRIPTION: Equilibrium solubility test (HPLC)
COND: deionized water, water, thermodynamic from solid

GIVEN_SMILES | solubility thermodynamic at 24 h (µg/mL)
CCOc1ccc(Cc2cc([C@@H]3O[C@H](CO)[C@@H](O)[C@H](O)[C@H]3O)ccc2Cl)cc1 | 290

###

MEASUREMENT_DESCRIPTION: Equilibrium solubility test (HPLC)
COND: water, thermodynamic from solid
ASSAY_ENDPOINT: solubility thermodynamic at 12 h (µg/mL)

COMPOUND | SCALE_UNIT | READOUT_VALUE
N[C@@H](CC(=O)N1CCn2c(nnc2C(F)(F)F)C1)Cc1cc(F)c(F)cc1F.O.O=P(O)(O)O [Sitagliptin] | µg/mL | 1420

###

MEASUREMENT_DESCRIPTION: Equilibrium solubility test (HPLC)
COND: buffer solution, pH 7, aqueous buffer, thermodynamic from solid

GIVEN_SMILES | solubility thermodynamic at 12 h, µg/mL
CCOc1ccc(Cc2cc([C@@H]3O[C@H](CO)[C@@H](O)[C@H](O)[C@H]3O)ccc2Cl)cc1 | 320

###

MEASUREMENT_DESCRIPTION: Equilibrium solubility test (HPLC)
COND: buffer solution, pH 4, aqueous buffer, thermodynamic from solid

COMPOUND | SCALE_UNIT | solubility thermodynamic at 24 h
CCOc1ccc(Cc2cc([C@@H]3O[C@H](CO)[C@@H](O)[C@H](O)[C@H]3O)ccc2Cl)cc1 [Dapagliflozin] | µg/mL | 370

###

MEASUREMENT_DESCRIPTION: Equilibrium solubility test (HPLC)
COND: buffer solution, pH 7, aqueous buffer, thermodynamic from solid

GIVEN_SMILES | solubility thermodynamic at 24 h
CCOc1ccc(Cc2cc([C@@H]3O[C@H](CO)[C@@H](O)[C@H](O)[C@H]3O)ccc2Cl)cc1 | 320 µg/mL

###

MEASUREMENT_DESCRIPTION: Apparent solubility test (USP <1236>)
COND: buffer solution, 20 °C, pH 6.8, aqueous buffer, thermodynamic from solid

GIVEN_SMILES | solubility
CCOc1ccc(Cc2cc([C@@H]3O[C@H](CO)[C@@H](O)[C@H](O)[C@H]3O)ccc2Cl)cc1 | 100 to 1000 µg/mL

###

MEASUREMENT_DESCRIPTION: Apparent solubility test (USP <1236>)
COND: pH 2.0 buffer solution, 20 °C, pH 2, aqueous buffer, thermodynamic from solid
ASSAY_ENDPOINT: solubility

COMPOUND | READOUT_VALUE
CCOc1ccc(Cc2cc([C@@H]3O[C@H](CO)[C@@H](O)[C@H](O)[C@H]3O)ccc2Cl)cc1 [Dapagliflozin] | 100 to 1000 µg/mL

###

MEASUREMENT_DESCRIPTION: Equilibrium solubility test (HPLC)
COND: pH 7, aqueous buffer, thermodynamic from solid
Procedure: The column used was an Agilent C18 column (5.0 μm, 4.6 × 150 mm). The mobile phase and diluted solution of the content and dissolution studies analyses were prepared with 0.5% triethylamine buffer (v/v, pH 6.8 adjusted with 85% phosphoric acid) and acetonitrile at a ratio of 7:3 (v/v). […] In the case of the content and dissolution studies, the mobile phase was constantly flowed for 18 min via an isocratic elution method and analyzed. […]
ASSAY_ENDPOINT: solubility thermodynamic at 24 h (µg/mL)

GIVEN_SMILES | ASSAY_ENDPOINT | READOUT_VALUE
N[C@@H](CC(=O)N1CCn2c(nnc2C(F)(F)F)C1)Cc1cc(F)c(F)cc1F.O.O=P(O)(O)O | solubility thermodynamic at 24 h | 2760

###

MEASUREMENT_DESCRIPTION: Apparent solubility test (USP <1236>)
COND: buffer solution, 20 °C, pH 6, aqueous buffer, thermodynamic from solid

GIVEN_SMILES | solubility
CCOc1ccc(Cc2cc([C@@H]3O[C@H](CO)[C@@H](O)[C@H](O)[C@H]3O)ccc2Cl)cc1 | 100 to 1000 µg/mL

###

MEASUREMENT_DESCRIPTION: Equilibrium solubility test (HPLC)
COND: buffer solution, pH 3, aqueous buffer, thermodynamic from solid

GIVEN_SMILES | SCALE_UNIT | solubility thermodynamic at 12 h
CCOc1ccc(Cc2cc([C@@H]3O[C@H](CO)[C@@H](O)[C@H](O)[C@H]3O)ccc2Cl)cc1 | µg/mL | 400
